experiment: Toxicity liver stage against HepG2, at 10uM; format: cell-based; set-up: test concentration 10 uM, cell line HepG2-A16-CD81EGFP; settings: human, HepG2-A16-CD81EGFP cells; read-out: INHIBITION
Listed next: entries and their corresponding cytotoxicity at 10 µM.
API: value field is a number in %; no unit string.

Solved cases (3 shown):
Cc1cccnc1NCCNC(=O)C1CCN(Cc2ccco2)CC1 : -2.51
CN1CCC(n2nc(CC3CC3)nc2-c2ccc(F)cc2Cl)CC1 : -1.84
O=C(NCC(=O)N1CC2(CCCC2)c2c(F)cccc21)C1CC1 : -3.47

Lab book: cytotoxicity at 10 µM of `CC(C)c1nn(C)c(N(C)C)c1CNCc1ccnn1C` noted as 0.926

Lab book: cytotoxicity at 10 µM of CN1CC2(CCCN(c3cnccn3)C2)OC1=O (stereo unspecified) noted as -43.2

Lab book: cytotoxicity at 10 µM of `Cc1ccc(SC2CCCC2)c(C(=O)NCCO)c1` noted as -45.3

* * *

assay: Toxicity liver stage against HepG2, at 10uM; format: cell-based; design: test concentration 10 uM, cell line HepG2-A16-CD81EGFP; conditions: human, HepG2-A16-CD81EGFP cells; read-out: INHIBITION
recorded endpoint: cytotoxicity at 10 µM (%)
API: value field is a number in %; no unit string.

Solved cases (5 shown):
CC(C)CS(=O)(=O)N1C[C@@H]2C[C@H](C(=O)N3CCCC3)[C@H](C1)O2 : 17
CCn1ccnc1CN1CCN(CC(O)c2ccco2)CC1 (stereo unspecified) : -4.57
Cc1ncsc1CN1CC[C@H]2OCC[C@@]2(C(=O)N2CCCO2)C1 : -0.0653
O=C(O)c1cnc(N2CCC(O)CC2)nc1COc1cccc(F)c1 : -9.09
Cc1nc(C)n(CC2CCCN2CC(=O)Nc2ccnn2C(C)C)n1 (stereo unspecified) : -14

Attention now turns to another entry.
Lab book: cytotoxicity at 10 µM of CCC(C)(NCC(=O)NC(C)C)c1nc(C)cs1 (stereo unspecified) noted as -2.06

* * *

experiment: Toxicity liver stage against HepG2, at 10uM; type: cell-based; design: test concentration 10 uM, cell line HepG2-A16-CD81EGFP; conditions: human, HepG2-A16-CD81EGFP cells; read-out: INHIBITION
recorded endpoint: cytotoxicity at 10 µM (%)
API: value field is a number in %; no unit string.

Solved cases (8 shown):
Cc1ccc([C@H]2CN(C(=O)C3CCC3)C[C@@H]2N)o1 : 7.95
Cc1nccnc1C1CCN(C2CCCC2O)CC1 (configuration not stated) : -1.35
Cc1nc(O)cc(C2CCN(Cc3cccc(F)c3F)C2)n1 (configuration not stated) : -1.19
CCn1c(C2CCN(C(=O)c3ccc4cc[nH]c4c3)CC2)n[nH]c1=O : -18.5
Cc1cnc(NC(=O)NCCOc2ncccc2Cl)s1 : 6.62
CC1=C(C(N)=O)C(c2cn(C)nc2C)N2C(=O)CSC2=N1 (configuration not stated) : 4.43
CC(C)n1[nH]c(=O)c2c1NC(=O)CC2c1cccc(OC(F)F)c1 (configuration not stated) : 16
COCC(=O)N1CCC2(CCC(C(=O)N3CCCC3)O2)CC1 (configuration not stated) : -1.63

Lab book: cytotoxicity at 10 µM of CCc1nc(C2CCCN(C(=O)c3ccc(F)cc3)C2)no1 (configuration not stated) noted as -40.5

Lab book: cytotoxicity at 10 µM of `Cc1nn(C)cc1CN1CCCn2nc(CNC(=O)C3CCC3)cc2C1` noted as 2.84

Lab book: cytotoxicity at 10 µM of `CCc1nsc(N2CCN(Cc3ccno3)CC2)n1` noted as -8.95

Lab book: cytotoxicity at 10 µM of Cc1nc(CN2CCC2(CCCc2ccccn2)C(=O)N(C)C)co1 (configuration not stated) noted as 11.4

* * *

experiment: Toxicity liver stage against HepG2, at 10uM; type: cell-based; parameters: test concentration 10 uM, cell line HepG2-A16-CD81EGFP; conditions: human, HepG2-A16-CD81EGFP cells; read-out: INHIBITION
recorded endpoint: cytotoxicity at 10 µM (%)
API: value field is a number in %; no unit string.

CC1CN(C(=O)NCCCn2cncn2)CCO1 (stereo unspecified) : -6.82

Lab book: cytotoxicity at 10 µM of `O=C(C1CC1)N(Cc1ccc2cc[nH]c2c1)C1CC1` noted as -2.98

Lab book: cytotoxicity at 10 µM of `O=C1CCCN1Cc1ncn2c1CN(C(=O)NC1CCCC1)CCC2` noted as -147

Lab book: cytotoxicity at 10 µM of `Cc1nn(C)c(C)c1CCC(=O)N(C)Cc1ccc2nsnc2c1` noted as -1.62

Lab book: cytotoxicity at 10 µM of c1nc2n(n1)CC(NCc1nc(-c3ccsc3)no1)CC2 (stereo unspecified) noted as -8.13

Lab book: cytotoxicity at 10 µM of Nc1nc2c(c(N3CCCC(OCc4ccccn4)C3)n1)CCNCC2 (stereo unspecified) noted as -11.4

Lab book: cytotoxicity at 10 µM of `Cn1cc(CN2C[C@H]3CCC[C@@]3(COc3cccnc3)C2)cn1` noted as -107

* * *

assay: Toxicity liver stage against HepG2, at 10uM; type: cell-based; set-up: test concentration 10 uM, cell line HepG2-A16-CD81EGFP; conditions: human, HepG2-A16-CD81EGFP cells; read-out: INHIBITION
recorded endpoint: cytotoxicity at 10 µM (%)
API: value field is a number in %; no unit string.

O=C(c1cnc[nH]1)N1CCC(Oc2cccnc2)CC1 : 6.87

Lab book: cytotoxicity at 10 µM of Cc1cc(N2CCOCC(Cc3ccc4[nH]ccc4c3)C2)ncn1 (configuration not stated) noted as -3.77

Lab book: cytotoxicity at 10 µM of `COCC(=O)Nc1ccnn1-c1ccc(Cl)cc1` noted as 2.18

Lab book: cytotoxicity at 10 µM of `CCc1cc(NCCCN(C)C2CCCC2)ncn1` noted as 1.75

Lab book: cytotoxicity at 10 µM of `Cc1nccn1CCN(C)c1cc(C(C)C)nc2ccnn12` noted as -3.88

Lab book: cytotoxicity at 10 µM of `Cc1ccc(CN(C)Cc2cnc(N3CCOCC3)s2)o1` noted as -8.46

Lab book: cytotoxicity at 10 µM of `O=c1oc(-c2ccc(F)cc2)nn1CCS(=O)(=O)c1ccccc1` noted as -0.924

* * *

assay: Toxicity liver stage against HepG2, at 10uM; assay type: cell-based; design: test concentration 10 uM, cell line HepG2-A16-CD81EGFP; conditions: human, HepG2-A16-CD81EGFP cells; read-out: INHIBITION
recorded endpoint: cytotoxicity at 10 µM (%)
API: value field is a number in %; no unit string.

CN1CCN(c2ccc3ccc(C(=O)N4CCCCO4)cn23)CC1 : -7.3

Lab book: cytotoxicity at 10 µM of CC1COCCN1C(=O)c1ccc(=O)n(CCOc2ccccc2)n1 (stereo unspecified) noted as -13.5

Lab book: cytotoxicity at 10 µM of COc1cc2c(cc1CNC(=O)C(C)n1ccnc1C(C)C)CCC2 (stereo unspecified) noted as 0.719

Lab book: cytotoxicity at 10 µM of `Cc1cnn(-c2ccc(S(N)(=O)=O)cc2F)c1` noted as 1.64

Lab book: cytotoxicity at 10 µM of `COCCN1C(=O)C[C@H]2[C@H]1CCN2Cc1cccc(C#N)c1` noted as 2.55

Lab book: cytotoxicity at 10 µM of `Cn1cc(S(=O)(=O)NCc2ccsc2)cn1` noted as 0.978

Lab book: cytotoxicity at 10 µM of CCCC(=O)Nc1cc(C(=O)NC(C)Cc2ccncc2)ccc1C (stereo unspecified) noted as 2.52

Lab book: cytotoxicity at 10 µM of `Cc1ccccc1CN(CCN(C)C)Cc1ccc(C(=O)O)cc1` noted as -1.6

Lab book: cytotoxicity at 10 µM of `COCCNc1nc2c(c(NCc3ccncc3)n1)CCNCC2` noted as -2.18

Lab book: cytotoxicity at 10 µM of `CC(C)CN1CCC2(C=C(C(=O)N3CCCC3)c3ccccc32)CC1` noted as -3.12

Lab book: cytotoxicity at 10 µM of `Cc1cccc(C)c1OC1CN(C(=O)C2CCN(C(=O)N(C)C)CC2)C1` noted as 2.69

* * *

assay: Toxicity liver stage against HepG2, at 10uM; assay type: cell-based; parameters: test concentration 10 uM, cell line HepG2-A16-CD81EGFP; conditions: human, HepG2-A16-CD81EGFP cells; read-out: INHIBITION
recorded endpoint: cytotoxicity at 10 µM (%)
API: value field is a number in %; no unit string.

Solved cases (5 shown):
COc1ccc(-c2cn3c(n2)CO[C@@H](CNCc2ccccn2)C3)cc1 : -11.8
O=C1CCC(c2nc(C3CCNCC3)no2)N1 (centres undefined) : -3.96
CC1CCCCN1C(=O)c1coc(COc2cccc3cnccc23)n1 (centres undefined) : -143
O=C(CSc1ccccn1)N1CCN(CCO)[C@@H]2CS(=O)(=O)C[C@@H]21 : 9.87
CNC(=O)N1CCC2(CC1)CNc1ccc(F)cc12 : 10.1

Lab book: cytotoxicity at 10 µM of `Cc1noc(C)c1CN1CCN(C(=O)CCn2cncn2)CC1` noted as 0.975

Cited source: ChEMBL document CHEMBL4513216
